Values from ChEMBL document CHEMBL1126190

System: 5-hydroxytryptamine receptor 1A (Rattus norvegicus, UniProt P19327)
Sequence (P19327 whole entry): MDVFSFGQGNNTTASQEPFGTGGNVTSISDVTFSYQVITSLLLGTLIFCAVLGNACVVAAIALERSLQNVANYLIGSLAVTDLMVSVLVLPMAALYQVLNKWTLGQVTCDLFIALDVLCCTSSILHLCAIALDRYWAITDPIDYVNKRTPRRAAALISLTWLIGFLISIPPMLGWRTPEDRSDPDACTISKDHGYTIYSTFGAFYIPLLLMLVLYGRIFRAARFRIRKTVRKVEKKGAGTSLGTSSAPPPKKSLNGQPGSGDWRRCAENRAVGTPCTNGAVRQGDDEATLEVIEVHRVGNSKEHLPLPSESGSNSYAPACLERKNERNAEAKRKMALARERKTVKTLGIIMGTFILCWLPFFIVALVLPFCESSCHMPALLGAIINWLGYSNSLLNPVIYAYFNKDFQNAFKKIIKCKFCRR
Readout label: Ki

INSERT INTO results (molecule, result) VALUES
  ('CC1SC(C)(C)C(=O)N1CCCCN1CCN(c2csc3cc(F)ccc23)CC1 (stereo unspecified)', '40 nM');
